B1: library; numbered along this chain (parent)
chain: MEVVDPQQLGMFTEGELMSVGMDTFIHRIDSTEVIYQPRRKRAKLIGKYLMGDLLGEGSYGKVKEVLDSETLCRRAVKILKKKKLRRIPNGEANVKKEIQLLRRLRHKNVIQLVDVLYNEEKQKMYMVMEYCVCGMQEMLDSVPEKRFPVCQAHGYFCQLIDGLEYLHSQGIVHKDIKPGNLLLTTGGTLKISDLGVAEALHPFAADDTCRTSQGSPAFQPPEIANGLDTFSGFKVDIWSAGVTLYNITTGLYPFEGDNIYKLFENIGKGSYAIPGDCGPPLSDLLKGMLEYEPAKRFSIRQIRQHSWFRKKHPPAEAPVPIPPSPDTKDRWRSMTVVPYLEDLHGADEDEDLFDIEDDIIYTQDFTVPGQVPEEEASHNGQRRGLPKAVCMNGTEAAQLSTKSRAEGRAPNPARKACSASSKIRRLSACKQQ

# Variants of: B1
# assay-protocol: STK11 functional score (HeLa growth suppression), rescaled enrichment; synonymous median = 1, nonsense median = 0 (normalised score)
# measurement-context: with HeLa; variant type: missense
measurement-label: STK11 functional score

The cases that follow already have their STK11 functional score on record.
T209P : 1.27
S428F : 1.61

Request: I would be grateful if you could share the reported STK11 functional score for "I360V" .
Result: 1.49

Request: I would be grateful if you could share the reported STK11 functional score for "R384W" .
Result: 1.35
